Property: tissue to tissue ratio at 1 h; scope: individual compounds
- MEASUREMENT_DESCRIPTION: Ex vivo biodistribution of 177Lu-labeled ligands in PC-3 tumor-bearing mice
- EXPERIMENTAL_CONDITIONS: male, NOD.Cg-Rag1^tm1Mom Il2rg^tm1Wjl/SzJ (NRG), mouse, tumor/muscle, iv, total radioactivity, 1 h pi, blocked (100 µg GRPR antagonist co-injected); read-out: Tumor/muscle uptake ratio
MEASUREMENT_LABEL: tissue to tissue ratio at 1 h

{"COMPOUND": "CC(C)C[C@@H](CN1CC(F)(F)C[C@H]1C(N)=O)NC(=O)[C@H](Cc1c[nH]cn1)NC(=O)CN(C)C(=O)[C@@H](NC(=O)[C@H](C)NC(=O)[C@H](Cc1c[nH]c2ccccc12)NC(=O)[C@H](CCC(N)=O)NC(=O)[C@@H](Cc1ccccc1)NC(=O)CN1CCC(NC(=O)CN2CCN(CC(=O)O)CCN(CC(=O)O)CCN(CC(=O)O)CC2)CC1)C(C)C [[^177Lu]Lu-LW02080, metal not drawn]", "MEASUREMENT_LABEL": "tissue to tissue ratio at 1 h", "REPORTED_VALUE": 14.6}
{"COMPOUND": "CC(C)C[C@H](NC(=O)[C@H](Cc1cnc[nH]1)N(C)C(=O)CNC(=O)[C@@H](NC(=O)[C@H](C)NC(=O)[C@H](Cc1c[nH]c2ccccc12)NC(=O)[C@H](CCC(N)=O)NC(=O)[C@@H](Cc1ccccc1)NC(=O)CN1CCC(NC(=O)CN2CCN(CC(=O)O)CCN(CC(=O)O)CCN(CC(=O)O)CC2)CC1)C(C)(C)C)C(=O)N1CC(F)(F)C[C@H]1C(N)=O [[^177Lu]Lu-LW02060, metal not drawn]", "MEASUREMENT_LABEL": "tissue to tissue ratio at 1 h", "REPORTED_VALUE": 23.2}

###

Entries and their measured tissue uptake at 4 h follow.
- MEASUREMENT_DESCRIPTION: Ex vivo biodistribution of 177Lu-labeled ligands in PC-3 tumor-bearing mice
- EXPERIMENTAL_CONDITIONS: mouse, heart, intravenous, 4 h pi, n = 5; read-out: Heart uptake

{"COMPOUND": "CC(C)C[C@@H](CN1CC(F)(F)C[C@H]1C(N)=O)NC(=O)[C@H](Cc1c[nH]cn1)NC(=O)CN(C)C(=O)[C@@H](NC(=O)[C@H](C)NC(=O)[C@H](Cc1c[nH]c2ccccc12)NC(=O)[C@H](CCC(N)=O)NC(=O)[C@@H](Cc1ccccc1)NC(=O)CN1CCC(NC(=O)CN2CCN(CC(=O)O)CCN(CC(=O)O)CCN(CC(=O)O)CC2)CC1)C(C)C [[^177Lu]Lu-LW02080, metal not drawn]", "tissue uptake at 4 h, %ID/g": 0.03}
{"COMPOUND": "CC(C)C[C@H](NC(=O)[C@H](Cc1cnc[nH]1)N(C)C(=O)CNC(=O)[C@@H](NC(=O)[C@H](C)NC(=O)[C@H](Cc1c[nH]c2ccccc12)NC(=O)[C@H](CCC(N)=O)NC(=O)[C@@H](Cc1ccccc1)NC(=O)CN1CCC(NC(=O)CN2CCN(CC(=O)O)CCN(CC(=O)O)CCN(CC(=O)O)CC2)CC1)C(C)(C)C)C(=O)N1CC(F)(F)C[C@H]1C(N)=O [[^177Lu]Lu-LW02060, metal not drawn]", "tissue uptake at 4 h, %ID/g": 0.06}

###

Below, each of the compounds is paired with its reported tissue uptake at 24 h value.
- MEASUREMENT_DESCRIPTION: Ex vivo biodistribution of 177Lu-labeled ligands in PC-3 tumor-bearing mice
- EXPERIMENTAL_CONDITIONS: mouse, heart, intravenous, 24 h pi, n = 5; read-out: Heart uptake

{"COMPOUND": "CC(C)C[C@H](NC(=O)[C@H](Cc1cnc[nH]1)N(C)C(=O)CNC(=O)[C@@H](NC(=O)[C@H](C)NC(=O)[C@H](Cc1c[nH]c2ccccc12)NC(=O)[C@H](CCC(N)=O)NC(=O)[C@@H](Cc1ccccc1)NC(=O)CN1CCC(NC(=O)CN2CCN(CC(=O)O)CCN(CC(=O)O)CCN(CC(=O)O)CC2)CC1)C(C)(C)C)C(=O)N1CC(F)(F)C[C@H]1C(N)=O [[^177Lu]Lu-LW02060, metal not drawn]", "UNITS_LABEL": "%ID/g", "tissue uptake at 24 h": 0.02}
{"COMPOUND": "CC(C)C[C@@H](CN1CC(F)(F)C[C@H]1C(N)=O)NC(=O)[C@H](Cc1c[nH]cn1)NC(=O)CN(C)C(=O)[C@@H](NC(=O)[C@H](C)NC(=O)[C@H](Cc1c[nH]c2ccccc12)NC(=O)[C@H](CCC(N)=O)NC(=O)[C@@H](Cc1ccccc1)NC(=O)CN1CCC(NC(=O)CN2CCN(CC(=O)O)CCN(CC(=O)O)CCN(CC(=O)O)CC2)CC1)C(C)C [[^177Lu]Lu-LW02080, metal not drawn]", "UNITS_LABEL": "%ID/g", "tissue uptake at 24 h": 0.02}

###

Readings of tissue to tissue ratio at 1 h for the listed molecules
- MEASUREMENT_DESCRIPTION: Ex vivo biodistribution of 68Ga-labeled tracers in PC-3 tumor-bearing mice
- EXPERIMENTAL_CONDITIONS: male, NOD.Cg-Rag1^tm1Mom Il2rg^tm1Wjl/SzJ (NRG), mouse, tumor/pancreas, iv, total radioactivity, 1 h pi, n = 4; read-out: Tumor/pancreas uptake ratio

{"MOLECULE": "CC(C)C[C@H](NC(=O)[C@H](Cc1cnc[nH]1)N(C)C(=O)CNC(=O)[C@@H](NC(=O)[C@H](C)NC(=O)[C@H](Cc1c[nH]c2ccccc12)NC(=O)[C@H](CCC(N)=O)NC(=O)[C@@H](Cc1ccccc1)NC(=O)CN1CCC(NC(=O)CN2CCN(CC(=O)O)CCN(CC(=O)O)CCN(CC(=O)O)CC2)CC1)C(C)(C)C)C(=O)N1CC(F)(F)C[C@H]1C(N)=O [[^68Ga]Ga-LW02060, metal not drawn]", "tissue to tissue ratio at 1 h": 5.52}
{"MOLECULE": "CC(C)C[C@@H](CN1CC(F)(F)C[C@H]1C(N)=O)NC(=O)[C@H](Cc1c[nH]cn1)NC(=O)CN(C)C(=O)[C@@H](NC(=O)[C@H](C)NC(=O)[C@H](Cc1c[nH]c2ccccc12)NC(=O)[C@H](CCC(N)=O)NC(=O)[C@@H](Cc1ccccc1)NC(=O)CN1CCC(NC(=O)CN2CCN(CC(=O)O)CCN(CC(=O)O)CCN(CC(=O)O)CC2)CC1)C(C)C [[^68Ga]Ga-LW02080, metal not drawn]", "tissue to tissue ratio at 1 h": 18.4}

###

- MEASUREMENT_DESCRIPTION: Ex vivo biodistribution of 177Lu-labeled ligands in PC-3 tumor-bearing mice
- EXPERIMENTAL_CONDITIONS: male, NOD.Cg-Rag1^tm1Mom Il2rg^tm1Wjl/SzJ (NRG), mouse, tumor/pancreas, iv, total radioactivity, 24 h pi, n = 5; read-out: Tumor/pancreas uptake ratio
# tissue to tissue ratio at 24 h values compiled below
MEASUREMENT_LABEL: tissue to tissue ratio at 24 h

{"COMPOUND": "CC(C)C[C@@H](CN1CC(F)(F)C[C@H]1C(N)=O)NC(=O)[C@H](Cc1c[nH]cn1)NC(=O)CN(C)C(=O)[C@@H](NC(=O)[C@H](C)NC(=O)[C@H](Cc1c[nH]c2ccccc12)NC(=O)[C@H](CCC(N)=O)NC(=O)[C@@H](Cc1ccccc1)NC(=O)CN1CCC(NC(=O)CN2CCN(CC(=O)O)CCN(CC(=O)O)CCN(CC(=O)O)CC2)CC1)C(C)C [[^177Lu]Lu-LW02080, metal not drawn]", "REPORTED_VALUE": 26.5}
{"COMPOUND": "CC(C)C[C@H](NC(=O)[C@H](Cc1cnc[nH]1)N(C)C(=O)CNC(=O)[C@@H](NC(=O)[C@H](C)NC(=O)[C@H](Cc1c[nH]c2ccccc12)NC(=O)[C@H](CCC(N)=O)NC(=O)[C@@H](Cc1ccccc1)NC(=O)CN1CCC(NC(=O)CN2CCN(CC(=O)O)CCN(CC(=O)O)CCN(CC(=O)O)CC2)CC1)C(C)(C)C)C(=O)N1CC(F)(F)C[C@H]1C(N)=O [[^177Lu]Lu-LW02060, metal not drawn]", "REPORTED_VALUE": 5.7}

###

The reader will find reported tissue uptake at 1 h values listed item by item below.
- MEASUREMENT_DESCRIPTION: Ex vivo biodistribution of 177Lu-labeled ligands in PC-3 tumor-bearing mice
- EXPERIMENTAL_CONDITIONS: mouse, fat, intravenous, 1 h pi, n = 5; read-out: Fat uptake
MEASUREMENT_LABEL: tissue uptake at 1 h (%ID/g)

{"MOLECULE": "CC(C)C[C@H](NC(=O)[C@H](Cc1cnc[nH]1)N(C)C(=O)CNC(=O)[C@@H](NC(=O)[C@H](C)NC(=O)[C@H](Cc1c[nH]c2ccccc12)NC(=O)[C@H](CCC(N)=O)NC(=O)[C@@H](Cc1ccccc1)NC(=O)CN1CCC(NC(=O)CN2CCN(CC(=O)O)CCN(CC(=O)O)CCN(CC(=O)O)CC2)CC1)C(C)(C)C)C(=O)N1CC(F)(F)C[C@H]1C(N)=O [[^177Lu]Lu-LW02060, metal not drawn]", "REPORTED_VALUE": 0.08}
{"MOLECULE": "CC(C)C[C@@H](CN1CC(F)(F)C[C@H]1C(N)=O)NC(=O)[C@H](Cc1c[nH]cn1)NC(=O)CN(C)C(=O)[C@@H](NC(=O)[C@H](C)NC(=O)[C@H](Cc1c[nH]c2ccccc12)NC(=O)[C@H](CCC(N)=O)NC(=O)[C@@H](Cc1ccccc1)NC(=O)CN1CCC(NC(=O)CN2CCN(CC(=O)O)CCN(CC(=O)O)CCN(CC(=O)O)CC2)CC1)C(C)C [[^177Lu]Lu-LW02080, metal not drawn]", "REPORTED_VALUE": 0.04}
